- Test system: RARa:RXR (NR concentration 270 nM, RXRa partner concentration 90 nM)
- assayText: PBM binding z-score (relative to random genomic background probes); higher = stronger binding; sequences stand for … in GC…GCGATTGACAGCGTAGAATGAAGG
Let's look at some sequences and their measured PBM binding z-score.
Give the figure only, with no unit attached.

- itemSequence: "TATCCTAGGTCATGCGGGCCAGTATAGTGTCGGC"
  PBM binding z-score: 2.76
- itemSequence: "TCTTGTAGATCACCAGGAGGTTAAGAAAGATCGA"
  PBM binding z-score: 1.15
- itemSequence: "AGTCAAAGTTCAGGACTAGGTAACGTAAAGCACG"
  PBM binding z-score: 2.4
- itemSequence: "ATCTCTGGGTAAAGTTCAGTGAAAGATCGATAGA"
  PBM binding z-score: 1.55
- itemSequence: "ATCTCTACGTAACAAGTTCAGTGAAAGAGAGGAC"
  PBM binding z-score: 0.741

Let us move to another entry and its PBM binding z-score.
Can you share its PBM binding z-score? I mean this sequence: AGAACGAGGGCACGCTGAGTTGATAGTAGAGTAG
0.759

---

Let's look at some sequences and their measured PBM binding z-score.
- Test system: RARa homodimer (NR concentration 270 nM)
- assayText: PBM binding z-score (relative to random genomic background probes); higher = stronger binding; sequences stand for … in GC…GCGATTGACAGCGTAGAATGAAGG
Give the figure only, with no unit attached.

See these solved cases before continuing.
- itemSequence: "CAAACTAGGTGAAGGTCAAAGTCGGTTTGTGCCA"
  PBM binding z-score: 0.0969
- itemSequence: "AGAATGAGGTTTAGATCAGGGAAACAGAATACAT"
  PBM binding z-score: 0.721
- itemSequence: "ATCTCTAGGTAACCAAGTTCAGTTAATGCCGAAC"
  PBM binding z-score: 1.3
- itemSequence: "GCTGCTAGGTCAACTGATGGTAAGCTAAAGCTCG"
  PBM binding z-score: 0.282

Can you share its PBM binding z-score? I mean this sequence: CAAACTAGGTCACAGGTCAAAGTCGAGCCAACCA
0.827

Can you share its PBM binding z-score? I mean this sequence: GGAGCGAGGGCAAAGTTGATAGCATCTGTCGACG
-0.259

Can you share its PBM binding z-score? I mean this sequence: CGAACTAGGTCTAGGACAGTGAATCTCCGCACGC
-0.883

Can you share its PBM binding z-score? I mean this sequence: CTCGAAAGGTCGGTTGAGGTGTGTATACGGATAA
-0.365

Can you share its PBM binding z-score? I mean this sequence: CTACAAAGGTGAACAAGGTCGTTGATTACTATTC
0.686

---

- System: PPARg:RXRa (NR concentration 180 nM, RXRa partner concentration 90 nM)
- assayText: PBM binding z-score (relative to random genomic background probes); higher = stronger binding; sequences stand for … in GC…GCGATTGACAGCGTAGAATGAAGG
measuredProperty: PBM binding z-score

See these solved cases before continuing.
- itemSequence: "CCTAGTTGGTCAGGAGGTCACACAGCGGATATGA"
  subjectOfTest: "PPARg:RXRa (NR concentration 180 nM, RXRa partner concentration 90 nM)"
  result: 3.51
- itemSequence: "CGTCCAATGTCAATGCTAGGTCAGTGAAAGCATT"
  subjectOfTest: "PPARg:RXRa (NR concentration 180 nM, RXRa partner concentration 90 nM)"
  result: -0.028
- itemSequence: "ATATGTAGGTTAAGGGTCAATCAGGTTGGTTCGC"
  subjectOfTest: "PPARg:RXRa (NR concentration 180 nM, RXRa partner concentration 90 nM)"
  result: 11.6
- itemSequence: "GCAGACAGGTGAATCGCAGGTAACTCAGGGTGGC"
  subjectOfTest: "PPARg:RXRa (NR concentration 180 nM, RXRa partner concentration 90 nM)"
  result: 0.386
- itemSequence: "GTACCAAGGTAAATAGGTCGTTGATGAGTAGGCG"
  subjectOfTest: "PPARg:RXRa (NR concentration 180 nM, RXRa partner concentration 90 nM)"
  result: 1.37

Let us move to another entry and its PBM binding z-score.
Can you share its PBM binding z-score? I mean this sequence: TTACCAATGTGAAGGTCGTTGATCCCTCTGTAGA
-0.039
